# System: SK-BR-3 human breast adenocarcinoma cell line
# assay_method_text: SK-BR-3 anti-proliferation / cell kill assay (CellTiter-Glo, 144 hrs)
# Assay type: cell-based
# stated_conditions: Homo sapiens, SK-BR-3, read-out: SK-BR-3 IC50
pIC50: −log10 of the molar value.
# maps each entry to its pIC50

smiles_entry: CCCCCCN(C(=O)[C@@H](NC(=O)[C@H]1CCCCN1)[C@@H](C)CC)[C@H](C[C@@H](OC(C)=O)c1nc(C(=O)N[C@@H](Cc2ccc(NC(=O)CN)c(F)c2)CC(C)(C)C(=O)O)cs1)C(C)C
pIC50: 9.96

smiles_entry: CCCCCCN(C(=O)[C@@H](NC(=O)[C@H]1CCCCN1C)[C@@H](C)CC)[C@H](C[C@@H](OC(C)=O)c1nc(C(=O)N[C@@H](Cc2ccc(NCCN)cc2)CC(C)(C)C(=O)O)cs1)C(C)C
pIC50: 9.35
